# credit: patent US5070210A

Reported LC50, MW values for a set of molecules
tested on: Maize weevil [Sitophilus Zeamais (Motschulsky)]; assay: Maize weevil insecticidal test; assay type: in vivo; settings: adult weevils, percent in solution; 48 hours

Known LC50, MW results, listed for orientation:
• C=C(C)C(=Nc1ccc(C(F)(F)F)cc1)OCc1ccc(F)c(Oc2ccc(Cl)cc2)c1 = > 0.01%
• Cc1ccc(Oc2cccc(COC(=Nc3ccc(C(C)(C)C)cc3)C(C)C)c2)cc1 = > 0.01%
• CC(C)C(=Nc1ccc(F)c(Cl)c1F)OCc1cccc(Oc2ccc(F)cc2)c1 = 0.0075%

Now let's try a different one.
Input `CCOc1ccc(N=C(OCc2cccc(Oc3ccccc3)c2)C(C)C)cc1` . Output LC50, MW: > 0.01%

====

system: Maize weevil [Sitophilus Zeamais (Motschulsky)]; experiment: Maize weevil insecticidal test; assay type: in vivo; conditions: adult weevils, percent in solution; 48 hours
measured_endpoint: LC50, MW

• CC(C)C(=Nc1cc(Cl)ccc1Cl)OCc1cccc(Oc2ccccc2)c1 = > 0.01%
• COCc1c(F)c(F)c(COC(=Nc2ccc(C(C)(C)C)cc2)C(C)C)c(F)c1F = > 0.01%
• CC(C)C(=Nc1ccc(Cl)c(Cl)c1)OCc1cccc(Oc2ccccc2)c1 [Compound 9] = > 0.01%
• CC(C)C(=Nc1ccc(Br)c(F)c1)OCc1ccc(F)c(Oc2ccc(F)cc2)c1 = 0.008%
• C=C(C)C(=Nc1ccc(C(F)(F)F)cc1)OCc1cccc(Oc2ccc(F)cc2)c1 = > 0.01%
• FC(F)(F)c1ccc(N=C(OCc2cccc(Oc3ccccc3)c2)C(Cl)Cl)cc1 = > 0.01%
• CC(C)C(=Nc1ccc(C(F)(F)F)cc1Cl)OCc1ccc(F)c(Oc2ccccc2)c1 = > 0.01%
• CC(C)C(=Nc1ccc(F)c(Br)c1)OCc1cccc(Oc2ccc(F)cc2)c1 = > 0.01%
• CC(C)C(=Nc1cccc(C(F)(F)F)c1)OCC#CCOc1ccccc1 = > 0.01%
• CC(C)C(=Nc1ccc(F)c(Cl)c1)OCc1ccc(OCc2ccccc2)cc1 = > 0.01%

Input `CC(C)C(=Nc1ccc(OC(F)(F)F)cc1)OCc1ccc(F)c(Oc2ccc(Cl)cc2)c1` . Output LC50, MW: 0.0075%

Input `CCc1ccc(N=C(OCc2cccc(Oc3ccc(Cl)cc3)n2)C(C)C)cc1` . Output LC50, MW: > 0.01%

Input `CCOc1ccc(N=C(OCc2ccc(F)c(Oc3ccc(Cl)cc3)c2)C(C)C)cc1` . Output LC50, MW: > 0.01%

====

tested on: Maize weevil [Sitophilus Zeamais (Motschulsky)]; test: Maize weevil insecticidal test; format: in vivo; conditions: adult weevils, percent in solution; 48 hours
Reported LC50, MW values for a set of compounds

• CC(C)C(=Nc1ccc(OC(F)(F)F)cc1)OCc1cccc(Oc2ccccc2)n1 = > 0.01%
• COc1ccc(Oc2cccc(COC(=Nc3ccc(C(C)(C)C)cc3)C(C)C)c2)cc1 = > 0.01%
• Cc1cc(N=C(OCc2ccc(F)c(Oc3ccc(Cl)cc3)c2)C(C)C)ccc1Br = > 0.01%
• CC(C)C(=Nc1cccc(C(F)(F)F)c1)OC(C)c1cccc(Oc2ccccc2)c1 (centres unmarked) = > 0.01%
• CC(C)C(=Nc1ccc(F)c(Cl)c1)OCc1cccc(Oc2ccc(Br)cc2)n1 = > 0.01%
• CC(C)C(=Nc1cc(F)cc(C(F)(F)F)c1)OCc1cccc(Oc2ccccc2)c1 = > 0.01%
• CC(C)C(=Nc1ccc2c(c1)OC(F)(F)O2)OCc1cccc(Oc2ccc(F)cc2)c1 = 0.0025%
• CCC(C)C(=Nc1ccc(F)c(Cl)c1)OCc1cccc(Oc2ccccc2)c1 (centres unmarked) = > 0.01%

Fill in: Maize weevil [Sitophilus Zeamais (Motschulsky)] LC50, MW for `CC(C)C(=Nc1ccc(Cl)cc1)OCc1cccc(Oc2ccccc2)n1` = > 0.01%

Fill in: Maize weevil [Sitophilus Zeamais (Motschulsky)] LC50, MW for CC(C)C(=Nc1ccc(C(F)(F)F)c(Br)c1)OCc1ccc(F)c(Oc2ccc(Cl)cc2)c1 [Compound 433] = 0.005%

Fill in: Maize weevil [Sitophilus Zeamais (Motschulsky)] LC50, MW for `CC(C)C(=Nc1cccc(C(F)(F)F)c1)OCc1cccc(Oc2ccc(Cl)cn2)c1` = > 0.01%

Fill in: Maize weevil [Sitophilus Zeamais (Motschulsky)] LC50, MW for `C=CCOc1cccc(COC(=Nc2ccc(F)c(Cl)c2)C(C)C)c1` = > 0.01%

Fill in: Maize weevil [Sitophilus Zeamais (Motschulsky)] LC50, MW for `CC(C)C(=Nc1ccc(Br)c(Br)c1)OCc1ccc(F)c(Oc2ccc(F)cc2)c1` = > 0.01%

Fill in: Maize weevil [Sitophilus Zeamais (Motschulsky)] LC50, MW for `CC(C)C(=Nc1ccc(F)c(Cl)c1)OCc1cccc(Oc2ccc(F)cc2)c1F` = 0.005%

Fill in: Maize weevil [Sitophilus Zeamais (Motschulsky)] LC50, MW for `C#CCc1c(F)c(F)c(COC(=Nc2ccc3c(c2)OCO3)C(C)C)c(F)c1F` = > 0.01%

Fill in: Maize weevil [Sitophilus Zeamais (Motschulsky)] LC50, MW for `CC(C)C(=Nc1ccc([N+](=O)[O-])cc1)OCc1coc(Cc2ccccc2)c1` = > 0.01%

Fill in: Maize weevil [Sitophilus Zeamais (Motschulsky)] LC50, MW for `CSc1ccc(N=C(OCc2ccc(F)c(Oc3ccccc3)c2)C(C)C)cc1` = > 0.01%
